Assign relative β-galactosidase activity, inducer Rs to each entry below.
# Tested on: tetA promoter (PtetA)-lacZ reporter in E. coli KM3
# Assay type: cell-based
# STATED CONDITIONS: Table 4; rimsulfuron 20 μg/ml (20 ppm); 48 hrs at 30° C.
# print the numeric value only

IN: Can you share its relative β-galactosidase activity, inducer Rs? I mean this molecule: L1-29: library L1 hit, sulfonylurea-responsive TetR(B) variant, SEQ ID NO: 10 (protein, Sulfonylurea responsive repressor L1-29) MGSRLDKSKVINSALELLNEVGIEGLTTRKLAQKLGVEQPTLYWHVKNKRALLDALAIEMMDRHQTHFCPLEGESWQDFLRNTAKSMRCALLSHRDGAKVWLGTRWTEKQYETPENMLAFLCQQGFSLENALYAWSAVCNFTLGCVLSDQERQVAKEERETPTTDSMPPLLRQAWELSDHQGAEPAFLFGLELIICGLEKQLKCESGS
OUT: 0.1

IN: Can you share its relative β-galactosidase activity, inducer Rs? I mean this molecule: L1-24: library L1 hit, sulfonylurea-responsive TetR(B) variant (protein, Sulfonylurea responsive repressor L1-24) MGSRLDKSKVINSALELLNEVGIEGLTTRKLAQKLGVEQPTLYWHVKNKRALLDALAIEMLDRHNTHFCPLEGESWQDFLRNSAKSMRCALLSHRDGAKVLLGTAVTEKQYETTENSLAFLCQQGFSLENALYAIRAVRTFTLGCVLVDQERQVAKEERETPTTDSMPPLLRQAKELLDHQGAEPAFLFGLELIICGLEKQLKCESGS
OUT: 0.3

IN: Can you share its relative β-galactosidase activity, inducer Rs? I mean this molecule: L1-28: library L1 hit, sulfonylurea-responsive TetR(B) variant (protein, Sulfonylurea responsive repressor L1-28) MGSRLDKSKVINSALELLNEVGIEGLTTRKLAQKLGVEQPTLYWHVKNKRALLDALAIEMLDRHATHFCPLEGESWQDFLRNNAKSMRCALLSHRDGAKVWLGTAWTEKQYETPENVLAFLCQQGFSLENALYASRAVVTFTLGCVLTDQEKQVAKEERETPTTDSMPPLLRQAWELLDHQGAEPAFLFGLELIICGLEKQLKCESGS
OUT: 0.2

IN: Can you share its relative β-galactosidase activity, inducer Rs? I mean this molecule: L1-38: library L1 hit, sulfonylurea-responsive TetR(B) variant (protein, Sulfonylurea responsive repressor L1-38) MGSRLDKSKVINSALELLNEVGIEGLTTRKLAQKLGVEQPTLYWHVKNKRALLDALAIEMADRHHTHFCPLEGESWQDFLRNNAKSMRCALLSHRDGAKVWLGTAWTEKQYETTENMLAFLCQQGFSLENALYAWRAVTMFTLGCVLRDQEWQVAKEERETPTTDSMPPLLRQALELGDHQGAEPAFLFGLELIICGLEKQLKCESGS
OUT: 9.5

IN: Can you share its relative β-galactosidase activity, inducer Rs? I mean this molecule: L1-9: library L1 hit, sulfonylurea-responsive TetR(B) variant, parent of L2 and L4 (protein, Sulfonylurea responsive repressor L1-09) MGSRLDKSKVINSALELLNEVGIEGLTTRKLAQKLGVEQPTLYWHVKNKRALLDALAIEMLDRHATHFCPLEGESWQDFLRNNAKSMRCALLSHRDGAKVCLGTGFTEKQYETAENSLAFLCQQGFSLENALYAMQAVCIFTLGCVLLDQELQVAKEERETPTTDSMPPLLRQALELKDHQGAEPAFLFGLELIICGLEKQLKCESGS
OUT: 0.4
